Where these numbers come from: ChEMBL document CHEMBL5537160

- measurementTarget: Metabotropic glutamate receptor 8 (Rattus norvegicus, UniProt P70579)
- Sequence (P70579 whole entry): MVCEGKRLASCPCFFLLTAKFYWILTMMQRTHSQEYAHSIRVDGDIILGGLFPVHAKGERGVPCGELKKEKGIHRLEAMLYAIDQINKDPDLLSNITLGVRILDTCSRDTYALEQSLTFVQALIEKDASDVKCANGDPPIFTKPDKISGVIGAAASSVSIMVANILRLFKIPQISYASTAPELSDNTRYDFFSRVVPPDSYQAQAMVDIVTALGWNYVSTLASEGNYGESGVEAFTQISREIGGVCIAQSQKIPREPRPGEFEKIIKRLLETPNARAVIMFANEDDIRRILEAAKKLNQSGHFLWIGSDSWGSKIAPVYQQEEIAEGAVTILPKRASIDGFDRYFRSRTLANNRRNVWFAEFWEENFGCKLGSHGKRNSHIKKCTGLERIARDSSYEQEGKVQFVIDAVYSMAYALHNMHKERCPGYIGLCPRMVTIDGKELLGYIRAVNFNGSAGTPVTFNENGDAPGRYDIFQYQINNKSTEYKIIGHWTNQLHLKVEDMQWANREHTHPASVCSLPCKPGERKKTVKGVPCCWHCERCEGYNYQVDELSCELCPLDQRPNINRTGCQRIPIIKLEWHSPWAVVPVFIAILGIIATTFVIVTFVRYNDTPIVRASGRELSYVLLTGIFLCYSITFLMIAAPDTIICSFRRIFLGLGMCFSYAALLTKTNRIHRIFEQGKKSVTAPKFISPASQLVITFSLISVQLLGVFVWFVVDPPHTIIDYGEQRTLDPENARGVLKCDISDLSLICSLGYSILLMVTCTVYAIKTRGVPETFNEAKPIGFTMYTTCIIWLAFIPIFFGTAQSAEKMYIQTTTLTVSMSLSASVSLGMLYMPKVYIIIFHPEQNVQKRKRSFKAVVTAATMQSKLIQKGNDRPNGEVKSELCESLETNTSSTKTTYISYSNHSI
- assayNotes: Agonist activity at rat mGlu8 transfected in HEK293 cells co-transfected with chimeric Gqi9 incubated for 30 mins by IP-one HTRF assay
- Format: functional, cell-based
- conditionParameters: read-out: EC50
observedProperty: EC50 (nM)
Give bare numbers, in nM.

N[C@@H](CCP(=O)(O)O)C(=O)O    290

As a next step, examine the compound that follows.
EC50 lookup needed for Cl.N[C@H](C(=O)O)[C@H]1[C@H](CC(=O)O)[C@@H]1C(=O)O , thanks.
97

----------
- assayNotes: Half life in C57BL/6 mouse brain at 100 mg/kg, po by LC-MS/MS analysis
- Format: ADME, organism-based
observedProperty: half-life (h)
One number for each entry, in h.

half-life lookup needed for N[C@@]1(C(=O)O)CC[C@H]2[C@H](C(=O)O)[C@H]21 , thanks.
69
